target: T1, PIK3CA H1047L peptide on HLA-A*11:01 (human); test: multimer staining
T1 peptide: ALHGGWTTK
MEASURED_QUANTITY: binding result

TCR4 (TCR) alpha TRAV19*01 TRAJ49*01 CDR3: CALSEATGNQFYF beta TRBV29-1*01 TRBJ2-7*01 CDR3: CSVQTLTSSDEQYF; recognises
TCR5 (TCR) alpha TRAV24*01 TRAJ44*01 CDR3: CASHAGTASKLTF beta TRBV4-3*01 TRBJ2-1*01 CDR3: CASSQDVASSYNEQFF; recognises
TCR1 (TCR) alpha TRAV13-2*01 TRAJ49*01 CDR3: CAEGETGNQFYF beta TRBV5-1*01 TRBJ2-1*01 CDR3: CASSSGTGGFEQFF; recognises
TCR2 (TCR) alpha TRAV12-3*01 TRAJ26*01 CDR3: CATNYGQNFVF beta TRBV29-1*01 TRBJ2-7*01 CDR3: CSVSGTSNYEQYF; recognises
